The values you see were collected from patent US20220396632A1.

Biological target: T1, Recombinant human PSGL-1(ECD)-hFc1 (R&D Systems, Cat. 3345-PS) (human, UniProt Q14242 42-305)
T1 construct: Bought; Gln42-Val295 counted on AAC50061; also called PSGL-1-Fc; PSGL-1-hFc1 chimera; not shown: human IgG1 Fc, Pro100-Lys330
T1 sequence: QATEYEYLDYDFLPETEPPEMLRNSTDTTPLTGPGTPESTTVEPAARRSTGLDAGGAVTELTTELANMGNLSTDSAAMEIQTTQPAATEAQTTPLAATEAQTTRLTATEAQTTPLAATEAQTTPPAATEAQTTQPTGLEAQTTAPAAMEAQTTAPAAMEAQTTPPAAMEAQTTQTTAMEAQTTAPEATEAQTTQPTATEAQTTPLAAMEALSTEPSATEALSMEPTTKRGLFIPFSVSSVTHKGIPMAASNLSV
Test: Octet tandem; competitor 20G13
measurement.label: % binding of analyte mAb (%)
# output: bare number, implied unit %

Inquiry: Query % binding of analyte mAb for 19L04 (antibody, IgG4, V domains shown, From mouse immunisation; only variable domains given) VH: QIQLVQSGPELKKPGETVKISCKASGYTFTTYGMSWVKQAPGKGLKWMGWINTYSGVPTYADDFKGRFAFSLETSASTAYLQINNLKIEDTATYFCARHYYGSHYFDYWGQGTTLTVSS VL: DIMMTQSPSSLAMSVGQKVTLRCKSSQSLLNSSNQKNYLAWYQQKPGQSPKLLVYFASTRESGVPVRFIGSGSGTDFTLTISSMQAEDLADYFCQQHYFSPLTFGAGTKLELK
Reply text: 0
